Values compiled from patent US20110118447A1.

Provide the recorded fold difference in affinity vs original for the entries that follow.
# Study system: binding partner of C5A (XPA23)
# Method description: Biacore, K-off
Give bare numbers, in fold.

The cases that follow already have their fold difference in affinity vs original on record.
Binder	Number
C5A (XPA23) VH M57R (antibody, V domains shown) VH: EVQLLESGGGLVQPGGSLRLSCAASGFTFSKYFMFWVRQAPGKGLEWVSVISPSGGRTRYADSVKGRFTISRDNSKNTLYLQMNSLRAEDTAVYYCARVGYGGNSDYWGQGTLVTVSS VL: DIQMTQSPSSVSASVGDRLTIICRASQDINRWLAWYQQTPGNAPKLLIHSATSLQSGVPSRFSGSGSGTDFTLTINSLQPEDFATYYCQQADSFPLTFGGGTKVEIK	0.06
C5A (XPA23) VH R59Q (antibody, V domains shown) VH: EVQLLESGGGLVQPGGSLRLSCAASGFTFSKYFMFWVRQAPGKGLEWVSVISPSGGMTQYADSVKGRFTISRDNSKNTLYLQMNSLRAEDTAVYYCARVGYGGNSDYWGQGTLVTVSS VL: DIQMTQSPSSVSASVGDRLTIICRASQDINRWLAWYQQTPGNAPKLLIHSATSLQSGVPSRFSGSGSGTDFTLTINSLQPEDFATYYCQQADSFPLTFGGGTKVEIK	0.86

// returns reported fold difference in affinity vs original for input C5A (XPA23) VH I51E (antibody, V domains shown) VH: EVQLLESGGGLVQPGGSLRLSCAASGFTFSKYFMFWVRQAPGKGLEWVSVESPSGGMTRYADSVKGRFTISRDNSKNTLYLQMNSLRAEDTAVYYCARVGYGGNSDYWGQGTLVTVSS VL: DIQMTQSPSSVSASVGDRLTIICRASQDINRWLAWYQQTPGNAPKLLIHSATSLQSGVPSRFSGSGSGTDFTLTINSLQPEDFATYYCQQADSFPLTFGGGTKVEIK
0.73
